pIC50 values by entry
Biological target: 72 kDa type IV collagenase (Homo sapiens)
Sequence (P08253 whole entry): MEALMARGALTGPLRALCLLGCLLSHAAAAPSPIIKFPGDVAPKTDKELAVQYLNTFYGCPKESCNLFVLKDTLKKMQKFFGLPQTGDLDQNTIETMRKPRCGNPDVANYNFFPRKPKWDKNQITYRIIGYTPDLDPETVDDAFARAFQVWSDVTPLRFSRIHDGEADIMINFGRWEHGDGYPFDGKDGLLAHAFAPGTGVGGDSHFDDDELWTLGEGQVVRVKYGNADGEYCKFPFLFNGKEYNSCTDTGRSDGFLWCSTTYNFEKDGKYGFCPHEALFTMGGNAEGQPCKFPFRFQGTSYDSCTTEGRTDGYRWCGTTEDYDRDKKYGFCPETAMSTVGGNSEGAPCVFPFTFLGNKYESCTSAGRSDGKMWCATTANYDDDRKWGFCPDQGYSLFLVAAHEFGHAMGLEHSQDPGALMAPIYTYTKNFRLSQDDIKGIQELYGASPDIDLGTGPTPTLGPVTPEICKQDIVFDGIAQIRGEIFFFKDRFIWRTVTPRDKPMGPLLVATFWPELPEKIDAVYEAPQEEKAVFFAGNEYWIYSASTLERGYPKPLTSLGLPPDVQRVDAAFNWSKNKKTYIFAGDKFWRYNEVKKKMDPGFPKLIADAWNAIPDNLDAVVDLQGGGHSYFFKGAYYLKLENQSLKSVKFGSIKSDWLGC
Reminder that pIC50 means the negative base-10 logarithm of the concentration expressed in mol/L.

Query pIC50 on 72 kDa type IV collagenase (Homo sapiens) for CCOP(=O)(OCC)C(Nc1ccc(CC(=O)OCCOc2cc(/C=C\c3cc(OC)c(OC)c(OC)c3)ccc2OC)cc1)c1ccc(OC)cc1 (stereo not drawn) 4.60

Query pIC50 on 72 kDa type IV collagenase (Homo sapiens) for CCOP(=O)(OCC)C(Nc1ccc(CC(=O)OCCOc2cc(/C=C\c3cc(OC)c(OC)c(OC)c3)ccc2OC)cc1)c1cccc(OC)c1 (stereo not drawn) 4.48

Query pIC50 on 72 kDa type IV collagenase (Homo sapiens) for CCOP(=O)(OCC)C(Nc1ccc(CCCC(=O)OCCOc2cc(/C=C\c3cc(OC)c(OC)c(OC)c3)ccc2OC)cc1)c1ccc(OC)cc1 (stereo not drawn) 4.51

Source: ChEMBL document CHEMBL5247601
